Assay: Metabolic stability in human liver microsomes
Assay type: in vitro ADME
Details: some cells add hours in brackets
measurementName: Metabolism HLM (Min)

- chemSmiles: "COc1cc(-c2nc3ccc(C(=O)NCCCN(C)C)cc3n2C2CCC2)cc(OC)c1OC"
  Metabolism HLM (Min): "2767 (46.1 h) Min"
- chemSmiles: "COc1cc(F)cc(-c2nc3ccc(C(=O)NCCCN(C)C)cc3n2C2CCC2)c1"
  Metabolism HLM (Min): "194 (3.2 h) Min"

Problem: What does the data say about its Metabolism HLM (Min)? Entry: CNC(=O)[C@H]1C[C@H](n2c(-c3cc(OC)c(OC)c(OC)c3)nc3ccc(C(=O)NCCCN(C)C)cc32)C1
Solution: 769.1 (12.81 h) Min

Problem: What does the data say about its Metabolism HLM (Min)? Entry: CNC(=O)[C@H]1C[C@H](n2c(-c3cc(OC)c(OC)c(OC)c3)nc3ccc(C(=O)NCC4CCN(C)CC4)cc32)C1
Solution: 978 (16.3 h) Min
